Test system: C. glabrata T-192 (1775)
Settings: strain L, echinocandin-susceptible; YPAD broth, 24 h, 30 °C, OD600 reduced by ≥75%
Description: Candida strains were streaked from glycerol stock onto YPAD agar plates and grown for 24 h at 30 °C. Colonies were suspended in 1 mL of PBS and diluted to an optical density of 2 × 10^–4 at 600 nm (OD600) in flat-bottom 96-well microplates (Corning) with YPAD broth containing dilutions of each tested compound at concentrations ranging from 64 to 0.008 μg/mL in twofold dilutions. Control wells with yeast cells but no drug and blank wells that contained only YPAD were prepared. […]
Starred links: 1 amine or outer side, 2 acyl side, 3 side chain; linkers in the order of their positions; H or OH if unused. Positions of bridges follow the written chain, without caps; N, C: chain ends. Non-standard residues stand in square brackets, D forms with d. Residues, ends and D or L forms follow the SMILES beside them. *: point of attachment. X1 = O=C([C@@H](N[*:1])[C@H](O)[C@@H](O)c1ccc(OCc2cn(CCCNc3ccc([N+](=O)[O-])c4nonc34)nn2)cc1)[*:2]; Orn(4R-OH,5R-OCH2CH2NMe3+) = C[N+](C)(C)CCO[C@@H](N[*:3])[C@H](O)C[C@H](N[*:1])C(=O)[*:2]; pTerphenylCO(4''-OnC5H11) = CCCCCOc1ccc(-c2ccc(-c3ccc(C(=O)*)cc3)cc2)cc1; Pro(3S-OH,4S-Me) = C[C@H]1CN[C@H](C(=O)O)[C@H]1O; Hyp = O=C(O)[C@@H]1C[C@@H](O)CN1
MEASURED_METRIC: MIC (µg/mL)
Supply the numeric figure in µg/mL, leaving out any unit text.

COMPOUND: CCCCCOc1ccc(-c2ccc(-c3ccc(C(=O)N[C@H]4C[C@@H](O)[C@@H](OCCc5cn(CCCNc6ccc([N+](=O)[O-])c7nonc67)nn5)NC(=O)[C@@H]5[C@@H](O)[C@@H](C)CN5C(=O)[C@H]([C@@H](C)O)NC(=O)[C@H]([C@H](O)[C@@H](O)c5ccc(O)cc5)NC(=O)[C@@H]5C[C@@H](O)CN5C(=O)[C@H]([C@@H](C)O)NC4=O)cc3)cc2)cc1
TEST_SYSTEM: C. glabrata T-192 (1775)
MEASURED_METRIC: MIC
REPORTED_MEASUREMENT: 0.25

In the following, a different compound is considered.
For CCCCCOc1ccc(-c2ccc(-c3ccc(C(=O)N[C@H]4C[C@@H](O)[C@@H](OCC[N+](C)(C)C)NC(=O)[C@@H]5[C@@H](O)[C@@H](C)CN5C(=O)[C@H]([C@@H](C)O)NC(=O)[C@H]([C@H](O)[C@@H](O)c5ccc(OCc6cn(CCCNc7ccc([N+](=O)[O-])c8nonc78)nn6)cc5)NC(=O)[C@@H]5C[C@@H](O)CN5C(=O)[C@H]([C@@H](C)O)NC4=O)cc3)cc2)cc1 [Probe 6] ({pTerphenylCO(4''-OnC5H11)}-[Orn(4R-OH,5R-OCH2CH2NMe3+)]T[Hyp][X1]T[Pro(3S-OH,4S-Me)]; lactam 1-C) , write its MIC.
0.5

###

System: C. glabrata EF1620
Conditions: strain H, echinocandin-susceptible; YPAD broth, 24 h, 30 °C, OD600 reduced by ≥75%
Starred links: 1 amine or outer side, 2 acyl side, 3 side chain; linkers in the order of their positions; H or OH if unused. Positions of bridges follow the written chain, without caps; N, C: chain ends. Non-standard residues stand in square brackets, D forms with d. Residues, ends and D or L forms follow the SMILES beside them. *: point of attachment. X1 = O=C([C@@H](N[*:1])[C@H](O)[C@@H](O)c1ccc(OCc2cn(CCCNc3ccc([N+](=O)[O-])c4nonc34)nn2)cc1)[*:2]; Orn(4R-OH,5R-OCH2CH2NMe3+) = C[N+](C)(C)CCO[C@@H](N[*:3])[C@H](O)C[C@H](N[*:1])C(=O)[*:2]; pTerphenylCO(4''-OnC5H11) = CCCCCOc1ccc(-c2ccc(-c3ccc(C(=O)*)cc3)cc2)cc1; Orn(4R-OH,5R-OH) = O=C([C@H](C[C@@H](O)[C@@H](O)N[*:3])N[*:1])[*:2]; hTyr(3S-OH,4S-OH) = N[C@H](C(=O)O)[C@H](O)[C@@H](O)c1ccc(O)cc1; Pro(3S-OH,4S-Me) = C[C@H]1CN[C@H](C(=O)O)[C@H]1O; Hyp = O=C(O)[C@@H]1C[C@@H](O)CN1
MEASURED_METRIC: log10 MIC (log10 of the value in µg/mL)
Base-10 log of MIC, unit µg/mL.

Example cases with answers are listed next.
MOLECULE: CCCCCOc1ccc(-c2ccc(-c3ccc(C(=O)N[C@H]4C[C@@H](O)[C@@H](OCC[N+](C)(C)C)NC(=O)[C@@H]5[C@@H](O)[C@@H](C)CN5C(=O)[C@H]([C@@H](C)O)NC(=O)[C@H]([C@H](O)[C@@H](O)c5ccc(OCc6cn(CCCNc7ccc([N+](=O)[O-])c8nonc78)nn6)cc5)NC(=O)[C@@H]5C[C@@H](O)CN5C(=O)[C@H]([C@@H](C)O)NC4=O)cc3)cc2)cc1 [Probe 6] ({pTerphenylCO(4''-OnC5H11)}-[Orn(4R-OH,5R-OCH2CH2NMe3+)]T[Hyp][X1]T[Pro(3S-OH,4S-Me)]; lactam 1-C)
log10 MIC: -0.30

MOLECULE: CCCCCOc1ccc(-c2ccc(-c3ccc(C(=O)N[C@H]4C[C@@H](O)[C@@H](OCC[N+](C)(C)C)NC(=O)[C@@H]5[C@@H](O)[C@@H](C)CN5C(=O)[C@H]([C@@H](C)O)NC(=O)[C@H]([C@H](O)[C@@H](O)c5ccc(O)cc5)NC(=O)[C@@H]5C[C@@H](O)CN5C(=O)[C@H]([C@@H](C)O)NC4=O)cc3)cc2)cc1 [RZF, rezafungin, reference compound] ({pTerphenylCO(4''-OnC5H11)}-[Orn(4R-OH,5R-OCH2CH2NMe3+)]T[Hyp][hTyr(3S-OH,4S-OH)]T[Pro(3S-OH,4S-Me)]; lactam 1-C)
log10 MIC: -1.80

MOLECULE: CCCCCOc1ccc(-c2ccc(-c3ccc(C(=O)N[C@H]4C[C@@H](O)[C@@H](OCCc5cn(CCCNc6ccc([N+](=O)[O-])c7nonc67)nn5)NC(=O)[C@@H]5[C@@H](O)[C@@H](C)CN5C(=O)[C@H]([C@@H](C)O)NC(=O)[C@H]([C@H](O)[C@@H](O)c5ccc(O)cc5)NC(=O)[C@@H]5C[C@@H](O)CN5C(=O)[C@H]([C@@H](C)O)NC4=O)cc3)cc2)cc1
log10 MIC: -0.30

MOLECULE: CC[C@H](C)C[C@H](C)CCCCCCCCC(=O)N[C@H]1C[C@@H](O)[C@@H](NCCN)NC(=O)[C@@H]2[C@@H](O)CCN2C(=O)[C@H]([C@H](O)CCN)NC(=O)[C@H]([C@H](O)[C@@H](O)c2ccc(O)cc2)NC(=O)[C@@H]2C[C@@H](O)CN2C(=O)[C@H]([C@@H](C)O)NC1=O [CSF, caspofungin, reference compound]
log10 MIC: -1.51

MOLECULE: CC[C@H](C)C[C@H](C)CCCCCCCCC(=O)N[C@H]1C[C@@H](O)[C@@H](NCCN)NC(=O)[C@@H]2[C@@H](O)CCN2C(=O)[C@H]([C@H](O)CCN)NC(=O)[C@H]([C@H](O)[C@@H](O)c2ccc(OCc3cn(CCCNc4ccc([N+](=O)[O-])c5nonc45)nn3)cc2)NC(=O)[C@@H]2C[C@@H](O)CN2C(=O)[C@H]([C@@H](C)O)NC1=O
log10 MIC: 0.60

Next, consider the following molecule.
Give the value of log10 MIC reported for the following: CCCCCOc1ccc(-c2ccc(-c3ccc(C(=O)N[C@H]4C[C@@H](O)[C@@H](O)NC(=O)[C@@H]5[C@@H](O)[C@@H](C)CN5C(=O)[C@H]([C@@H](C)O)NC(=O)[C@H]([C@H](O)[C@@H](O)c5ccc(O)cc5)NC(=O)[C@@H]5C[C@@H](O)CN5C(=O)[C@H]([C@@H](C)O)NC4=O)cc3)cc2)cc1 [ANF, anidulafungin, reference compound] ({pTerphenylCO(4''-OnC5H11)}-[Orn(4R-OH,5R-OH)]T[Hyp][hTyr(3S-OH,4S-OH)]T[Pro(3S-OH,4S-Me)]; lactam 1-C)
-2.10

###

Test system: C. glabrata T-192 (1775)
Conditions: strain L, echinocandin-susceptible; YPAD broth, 24 h, 30 °C, OD600 reduced by ≥75%
Starred links: 1 amine or outer side, 2 acyl side, 3 side chain; linkers in the order of their positions; H or OH if unused. Positions of bridges follow the written chain, without caps; N, C: chain ends. Non-standard residues stand in square brackets, D forms with d. Residues, ends and D or L forms follow the SMILES beside them. *: point of attachment. Orn(4R-OH,5R-OCH2CH2NMe3+) = C[N+](C)(C)CCO[C@@H](N[*:3])[C@H](O)C[C@H](N[*:1])C(=O)[*:2]; pTerphenylCO(4''-OnC5H11) = CCCCCOc1ccc(-c2ccc(-c3ccc(C(=O)*)cc3)cc2)cc1; Orn(4R-OH,5R-OH) = O=C([C@H](C[C@@H](O)[C@@H](O)N[*:3])N[*:1])[*:2]; hTyr(3S-OH,4S-OH) = N[C@H](C(=O)O)[C@H](O)[C@@H](O)c1ccc(O)cc1; Pro(3S-OH,4S-Me) = C[C@H]1CN[C@H](C(=O)O)[C@H]1O; Hyp = O=C(O)[C@@H]1C[C@@H](O)CN1
MEASURED_METRIC: MIC (µg/mL)
Could you give me the number in µg/mL? Just the number is fine.

Worked examples follow.
COMPOUND: CC[C@H](C)C[C@H](C)CCCCCCCCC(=O)N[C@H]1C[C@@H](O)[C@@H](NCCN)NC(=O)[C@@H]2[C@@H](O)CCN2C(=O)[C@H]([C@H](O)CCN)NC(=O)[C@H]([C@H](O)[C@@H](O)c2ccc(OCc3cn(CCCNc4ccc([N+](=O)[O-])c5nonc45)nn3)cc2)NC(=O)[C@@H]2C[C@@H](O)CN2C(=O)[C@H]([C@@H](C)O)NC1=O
MEASURED_METRIC: MIC
UNIT_STRING: µg/mL
REPORTED_MEASUREMENT: 2
--
COMPOUND: CCCCCOc1ccc(-c2ccc(-c3ccc(C(=O)N[C@H]4C[C@@H](O)[C@@H](OCC[N+](C)(C)C)NC(=O)[C@@H]5[C@@H](O)[C@@H](C)CN5C(=O)[C@H]([C@@H](C)O)NC(=O)[C@H]([C@H](O)[C@@H](O)c5ccc(O)cc5)NC(=O)[C@@H]5C[C@@H](O)CN5C(=O)[C@H]([C@@H](C)O)NC4=O)cc3)cc2)cc1 [RZF, rezafungin, reference compound] ({pTerphenylCO(4''-OnC5H11)}-[Orn(4R-OH,5R-OCH2CH2NMe3+)]T[Hyp][hTyr(3S-OH,4S-OH)]T[Pro(3S-OH,4S-Me)]; lactam 1-C)
MEASURED_METRIC: MIC
UNIT_STRING: µg/mL
REPORTED_MEASUREMENT: 0.016
--
COMPOUND: CC[C@H](C)C[C@H](C)CCCCCCCCC(=O)N[C@H]1C[C@@H](O)[C@@H](NCCN)NC(=O)[C@@H]2[C@@H](O)CCN2C(=O)[C@H]([C@H](O)CCN)NC(=O)[C@H]([C@H](O)[C@@H](O)c2ccc(O)cc2)NC(=O)[C@@H]2C[C@@H](O)CN2C(=O)[C@H]([C@@H](C)O)NC1=O [CSF, caspofungin, reference compound]
MEASURED_METRIC: MIC
UNIT_STRING: µg/mL
REPORTED_MEASUREMENT: 0.016

# input for lookup
Give reported MIC value for CCCCCOc1ccc(-c2ccc(-c3ccc(C(=O)N[C@H]4C[C@@H](O)[C@@H](O)NC(=O)[C@@H]5[C@@H](O)[C@@H](C)CN5C(=O)[C@H]([C@@H](C)O)NC(=O)[C@H]([C@H](O)[C@@H](O)c5ccc(O)cc5)NC(=O)[C@@H]5C[C@@H](O)CN5C(=O)[C@H]([C@@H](C)O)NC4=O)cc3)cc2)cc1 [ANF, anidulafungin, reference compound] ({pTerphenylCO(4''-OnC5H11)}-[Orn(4R-OH,5R-OH)]T[Hyp][hTyr(3S-OH,4S-OH)]T[Pro(3S-OH,4S-Me)]; lactam 1-C)
0.008
